conditions: in methanol, 290.39 K
measured.property: solubility (mole fraction)
Answer with a bare number; do not write a unit.

In: Which solubility (mole fraction) value is on record for CC1=CC(=O)[N-]S(=O)(=O)O1.[K+] ?
Out: 0.000205

* * *

conditions: in ethanol, 307.9 K
measured.property: solubility (mole fraction)

In: Which solubility (mole fraction) value is on record for CC1=CC(=O)[N-]S(=O)(=O)O1.[K+] ?
Out: 0.0003

* * *

conditions: in water, 298.02 K
measured.property: solubility (mole fraction)
Answer with a bare number; do not write a unit.

In: Which solubility (mole fraction) value is on record for CC1=CC(=O)[N-]S(=O)(=O)O1.[K+] ?
Out: 0.000271

* * *

conditions: in water, 301.03 K
measured.property: solubility (mole fraction)

In: Which solubility (mole fraction) value is on record for CC1=CC(=O)[N-]S(=O)(=O)O1.[K+] ?
Out: 0.000292

* * *

settings: in ethanol, 287.47 K
measured.property: solubility (mole fraction)

In: Which solubility (mole fraction) value is on record for CC1=CC(=O)[N-]S(=O)(=O)O1.[K+] ?
Out: 0.000176

* * *

conditions: in water, 310.24 K
measured.property: solubility (mole fraction)
Answer with a bare number; do not write a unit.

In: Which solubility (mole fraction) value is on record for CC1=CC(=O)[N-]S(=O)(=O)O1.[K+] ?
Out: 0.000363

* * *

conditions: in methanol, 302.21 K
measured.property: solubility (mole fraction)

In: Which solubility (mole fraction) value is on record for CC1=CC(=O)[N-]S(=O)(=O)O1.[K+] ?
Out: 0.000256

* * *

conditions: in ethanol, 297.55 K
measured.property: solubility (mole fraction)
Answer with a bare number; do not write a unit.

In: Which solubility (mole fraction) value is on record for CC1=CC(=O)[N-]S(=O)(=O)O1.[K+] ?
Out: 0.000226

* * *

conditions: in ethanol, 282.39 K
measured.property: solubility (mole fraction)
Answer with a bare number; do not write a unit.

In: Which solubility (mole fraction) value is on record for CC1=CC(=O)[N-]S(=O)(=O)O1.[K+] ?
Out: 0.000154

* * *

conditions: in ethanol, 322.9 K
measured.property: solubility (mole fraction)
Answer with a bare number; do not write a unit.

In: Which solubility (mole fraction) value is on record for CC1=CC(=O)[N-]S(=O)(=O)O1.[K+] ?
Out: 0.000634

* * *

conditions: in methanol, 307.8 K
measured.property: solubility (mole fraction)
Answer with a bare number; do not write a unit.

In: Which solubility (mole fraction) value is on record for CC1=CC(=O)[N-]S(=O)(=O)O1.[K+] ?
Out: 0.000288

* * *

conditions: in methanol, 277.7 K
measured.property: solubility (mole fraction)

In: Which solubility (mole fraction) value is on record for CC1=CC(=O)[N-]S(=O)(=O)O1.[K+] ?
Out: 0.000156

* * *

conditions: in water, 288.35 K
measured.property: solubility (mole fraction)

In: Which solubility (mole fraction) value is on record for CC1=CC(=O)[N-]S(=O)(=O)O1.[K+] ?
Out: 0.000207

* * *

conditions: in methanol, 322.8 K
measured.property: solubility (mole fraction)
Answer with a bare number; do not write a unit.

In: Which solubility (mole fraction) value is on record for CC1=CC(=O)[N-]S(=O)(=O)O1.[K+] ?
Out: 0.000401
